- System: Harmaline-induced tremor
- Measurement Protocol: Harmaline-induced Tremor Model
- Type: in vivo
- Conditions: Mus musculus, ip, adult male CD1 mice; test article 30 mg/kg i.p.; harmaline 30 mg/kg i.p.; read-out: Tremor Suppression Activity (magnitude of tremor suppression in percent compared to vehicle)
- Method: Harmaline-induced Tremor: Harmaline-induced tremor is widely recognized as an animal model of Essential Tremor (ET). […] Following acute dosing of harmaline in mice, the tremor frequency (10-20 Hz) is typically recorded using an automated force plate-based system. Procedure: Tremor activity was measured using a custom-made testing apparatus containing a piezoelectric sensing platform which was connected to an amplifier (A-M Systems model 1700). […]
Listing of entries alongside the reported inhibition in vivo at 30 mg/kg.

Would you please look over these solved cases?
Recall the reported inhibition in vivo at 30 mg/kg of CC[C@H]1COc2cc(F)ccc2[C@H]1CS(N)(=O)=O (stereo in doubt) on Harmaline-induced tremor and write it down.
≤ 24%

Recall the reported inhibition in vivo at 30 mg/kg of C[C@@H]1COc2cc(F)ccc2[C@@H]1NS(N)(=O)=O (stereo in doubt) on Harmaline-induced tremor and write it down.
56 to 70%

Recall the reported inhibition in vivo at 30 mg/kg of NS(=O)(=O)CC1CCOc2cc(F)c(F)cc21 (single isomer, unassigned) on Harmaline-induced tremor and write it down.
56 to 70%

Consider now this further compound.
Recall the reported inhibition in vivo at 30 mg/kg of NS(=O)(=O)CC1CCOc2cc(Cl)ccc21 (single isomer, unassigned) on Harmaline-induced tremor and write it down.
71 to 100%

----------
- Tested on: Harmaline-induced tremor
- Measurement Protocol: Harmaline-induced Tremor Model
- Type: in vivo
- Conditions: Mus musculus, ip, adult male CD1 mice; test article 30 mg/kg i.p.; harmaline 30 mg/kg i.p.; read-out: Tremor Suppression Activity (magnitude of tremor suppression in percent compared to vehicle)
Listing of entries alongside the reported inhibition in vivo at 30 mg/kg.

Would you please look over these solved cases?
Quick one: give measured inhibition in vivo at 30 mg/kg for C[C@@H]1COc2cc(F)ccc2[C@H]1NS(N)(=O)=O (relative stereo) [Compound 76]
56 to 70%

Quick one: give measured inhibition in vivo at 30 mg/kg for CN([C@@H]1CCOc2cc(F)ccc21)S(N)(=O)=O (stereo in doubt) [Compound 70]
≤ 24%

Quick one: give measured inhibition in vivo at 30 mg/kg for C[C@H]1COc2cc(F)c(F)cc2[C@H]1CS(N)(=O)=O (stereo in doubt) [Compound 7]
25 to 55%

Quick one: give measured inhibition in vivo at 30 mg/kg for C[C@@H]1COc2ccccc2[C@H]1CS(N)(=O)=O (stereo in doubt) [Compound 41]
56 to 70%

---
Quick one: give measured inhibition in vivo at 30 mg/kg for NS(=O)(=O)CC1CC2(CC2)Oc2cc(F)ccc21 (single isomer, unassigned) [Compound 1]
56 to 70%

Quick one: give measured inhibition in vivo at 30 mg/kg for C[C@@H]1COc2cc(F)c(F)cc2[C@H]1CS(N)(=O)=O (stereo in doubt) [Compound 9]
25 to 55%

Quick one: give measured inhibition in vivo at 30 mg/kg for CC1(C)COc2cc(F)ccc2C1CS(N)(=O)=O (single isomer, unassigned) [Compound 43]
≤ 24%

Quick one: give measured inhibition in vivo at 30 mg/kg for C[C@@H]1COc2cc(F)c(F)cc2[C@@H]1CS(N)(=O)=O (stereo in doubt) [Compound 8]
25 to 55%

Quick one: give measured inhibition in vivo at 30 mg/kg for C[C@H]1COc2ccc(F)cc2[C@H]1CS(N)(=O)=O (relative stereo) [Compound 53]
25 to 55%
